Where these numbers come from: PubChem BioAssay (NCI)

# System: T-47D breast
# measurementProtocol: NCI tumour cell line growth inhibition, 48 h
# GI50 per record follows

compound	assaySystem	GI50
FC(F)(F)c1cc(NC2=NCCN=C(Nc3cc(C(F)(F)F)cc(C(F)(F)F)c3)SS2)cc(C(F)(F)F)c1	T-47D breast	4.22 µM

Query :: Recall and state the measured GI50 for Cn1c(O)c(N=NC(N)=S)c2ccccc21 .
Result :: 43.9 µM

Query :: Entry N#Cc1c(NCc2ccccc2)nc(NCc2ccccc2)c(C#N)c1-c1cccc(O)c1 needs its GI50 filled in; supply it.
Result :: 4.03 µM

Query :: Return GI50 (reported value) for this compound: O=C(O)c1ccc2cccnc2c1O
Result :: 2.18 µM

Query :: Find the measured GI50 of COc1cc(/C=C/c2cc(/C=C/c3ccc(O)c(OC)c3)[nH]c(=O)n2)ccc1O and report it.
Result :: 6.5 µM

Query :: Note down GI50 recorded for N#CC1CCc2c(c(-c3cn[nH]c3C(F)(F)F)nc3c(F)cc4[nH]ncc4c23)C1 (centres undefined)
Result :: 3.06 µM

Query :: Entry CCC1OC(/C(C)=C/C(C)/C=C/C2C(C)C2/C=C/C2OC(CC(=O)O)CC(O)C2O)CC=C1C (centres undefined) needs its GI50 filled in; supply it.
Result :: > 50 µM

Query :: Supply reported GI50 belonging to this compound: O=c1[nH]cnc2nc(-c3ccc(N(CCCl)CCCl)cc3)[nH]c12
Result :: 2.85 µM

Query :: Please look at this compound and report its GI50: CCN(CC)CCOc1nc2cc(OC)c(OC)cc2c2c1-c1ccc(OC)cc1C2=O
Result :: 18.4 µM

Query :: Name the recorded GI50 of the item CN1N=Nc2c(C(F)(F)F)nn(-c3ccccc3)c2N(C)C1=O in your answer.
Result :: > 100 µM

Query :: Retrieve GI50 measured for CCCNc1cccc(-n2ncc3c(N/N=C/c4ccncc4)ncnc32)c1 and print it.
Result :: > 25 µM

---

# Test system: SK-MEL-5 melanoma
# measurementProtocol: NCI tumour cell line growth inhibition, 48 h
Classification field: enter y for TGI values not below 20 µM, n for values below it.

Observe how each entry below is paired with its result.
compound	group
C[C@H]1CC2=CC(=O)CC[C@]2(C)[C@H]2CC[C@@]3(C)[C@@H](CC[C@]3(C)O)[C@H]12	y
O=C1C2=C(c3ccccc31)C(c1ccc(Cl)cc1)NC(=S)N2 (stereo not given)	y
CCCC(=O)Nc1cc(/C=C/C(=O)N2C[C@H]3C[C@@]34C2=CC(=O)c2[nH]cc(C)c24)n(C)c1	n
CC1(C)CC2(C)OC(=N)C1(C#N)C2(C#N)C#N (stereo not given)	y
CSc1ccccc1P(CCP(c1ccccc1SC)c1ccccc1SC)c1ccccc1SC	y
CCC1(CC)C(=O)[N-]C(=O)[N-]C1=O.[Au+].[Au+].c1ccc([PH+](c2ccccc2)c2ccccc2)cc1.c1ccc([PH+](c2ccccc2)c2ccccc2)cc1	n
CC1(O)C(=O)OC2CC([C@]3(O)CCC4[C@@H]5C[C@H]6O[C@]67[C@@H](O)C=CC(=O)[C@]7(C)C5CC[C@@]43C)C1(C)C2 (stereo not given in full)	y
Cc1ccc(S(=O)(=O)N2CCN(CCO)CCN(S(=O)(=O)c3ccc(C)cc3)CCN(CCO)CC2)cc1	y

Query :: Is TGI for COc1cc(C(=O)C/C(CCC(=O)Nc2ccc(Cl)cc2Cl)=N/Nc2nnc(C)n2N)ccc1O at or above 20 µM?
Result :: y

---

# Test system: EKVX NSCLC
# measurementProtocol: NCI tumour cell line growth inhibition, 48 h
Catalogue of TGI readings, one per entry.

Here's what some known entries look like.
compound	reportedResult
C(#Cc1ccccc1C#Cc1ccccn1)c1ccccn1	40.2 µM
Cc1ccc([N+](=O)[O-])cc1NC(=O)C(=O)C1CCC2=C(Sc3ccccc3N2)C1=O (stereo not given)	> 100 µM
Oc1ccc2ccccc2c1OCc1nnc(CCCCCCCCc2nnc(COc3c(O)ccc4ccccc34)o2)o1	> 100 µM
C#CCOc1cccc(Nc2ncc3ncn(C4CCN(C(=O)CCl)C4)c3n2)c1 (stereo not given)	> 62.5 µM
O=c1[nH]cnc2nc(-c3ccc(N(CCCl)CCCl)cc3)[nH]c12	> 100 µM
O=C(Nc1ccc(-c2ccnc(Nc3ccc(N4CCOCC4)cc3)n2)cc1)C1CCCN1 (stereo not given)	33.7 µM
C=C1C(=O)O[C@H]2C/C(C=O)=C\[C@H]3O[C@H]3/C(COC(=O)C(C)C)=C/CC12 (stereo not given in full)	29.8 µM
C=C(C)[C@@H]1CC[C@]2(C)[C@H](CC=C3[C@@H]4[C@H](C)[C@@H](C)CC[C@]4(CO)CC[C@]32C)[C@@]1(C)CCCN	2.94 µM
CC1OC=CC(=O)C1O (stereo not given)	> 100 µM
COc1cc(/C=C\c2cc(OC)c(OC)c(OC)c2)cc(NS(=O)(=O)c2cccc(Cl)c2)c1OC	> 100 µM

Query :: Identify the reported TGI for the following entry. O=S1(=O)CC(Br)C(Br)C1 (stereo not given)
Result :: 49.8 µM

Query :: Give recorded TGI. C[C@H]1CC2=CC(=O)CC[C@]2(C)[C@H]2CC[C@@]3(C)[C@@H](CC[C@]3(C)O)[C@H]12
Result :: > 100 µM

Query :: Assign TGI to the following record: COC(=O)/C=C\C(C#N)(C#N)N=Cc1ccsc1
Result :: 12.5 µM

Query :: Query TGI for CC1(C)O[C@@H](CP(c2cccc3ccccc23)c2cccc3ccccc23)[C@H](CP(c2cccc3ccccc23)c2cccc3ccccc23)O1
Result :: > 100 µM

---

GI50 by entry:
# Test system: NCI-H460 lung

Below: 4 molecules and their reported GI50.
molecule	reportedResult
CS(=O)(=O)Nc1cc(-c2ccc3ncnc(Nc4cccc(Cl)c4F)c3c2)cnc1Cl	4.09 µM
C=C1C[C@@H]2[C@H](CC[C@]3(C)C(=O)CC[C@@H]23)[C@@]2(C)C=CC(=O)C=C12	22 µM
CN1N=Nc2c(C(F)(F)F)nn(-c3ccccc3)c2N(C)C1=O	> 100 µM
C=C1C(=O)O[C@H]2[C@H]1CC/C(COC(=O)/C=C/c1c[nH]c3ccccc13)=C\CC[C@@]1(C)O[C@@H]21	1.01 µM

Query :: Quick one: give measured GI50 for CCC(=O)OC1=CN2C(=NC(c3ccc(N)cc3)=CC2c2cc(OC)c(OC)c(OC)c2)S1 (stereo not given)
Result :: 2.61 µM

---

# Test system: UO-31 renal
# measurementProtocol: NCI tumour cell line growth inhibition, 48 h
measuredProperty: TGI

Would you please look over these solved cases?
compound	measuredProperty	reportedResult
COc1cc(CC2CC(c3ccc4c(c3)OCO4)OC2=O)cc(OC)c1OC (stereo not drawn)	TGI	82.4 µM
Cc1ccc(S(=O)(=O)N2CCN(CCO)CCN(S(=O)(=O)c3ccc(C)cc3)CCN(CCO)CC2)cc1	TGI	> 100 µM
Cc1ccc([N+](=O)[O-])cc1NC(=O)C(=O)C1CCC2=C(Sc3ccccc3N2)C1=O (stereo not drawn)	TGI	> 100 µM
COc1ccccc1N1C(=O)/C(=C\c2cccc(Oc3ccccc3)c2)S(=O)(=O)C1c1ccccc1 (stereo not drawn)	TGI	> 100 µM
CCC1(CC)C(=O)[N-]C(=O)[N-]C1=O.[Au+].[Au+].c1ccc([PH+](c2ccccc2)c2ccccc2)cc1.c1ccc([PH+](c2ccccc2)c2ccccc2)cc1	TGI	3.04 µM

Query :: Look up TGI of Cc1cccc2c1C(=O)[C@@](C)([C@]1(C)Nc3cccc(C)c3C1=O)N2 and report it.
Result :: > 100 µM

Query :: Let me know recorded TGI for N#CC1CCc2c(c(-c3cn[nH]c3C(F)(F)F)nc3c(F)cc4[nH]ncc4c23)C1 (stereo not drawn) , thanks.
Result :: 36.6 µM

Query :: Fill in TGI for record CC(=O)O[C@H](C[C@H](C(C)C)N(C)C(=O)[C@@H](NC(=O)[C@H]1CCCCN1C)C(C)(C)C)c1nc(C(=O)N[C@@H](Cc2ccccc2)C[C@H](C)C(=O)O)cs1
Result :: > 25 µM

---

# System: NCI-H522 lung
# measurementProtocol: NCI tumour cell line growth inhibition, 48 h
measuredProperty: GI50

Use these answered entries as a reference point.
compound	reportedResult
CS(=O)(=O)Nc1cc(-c2ccc3ncnc(Nc4cccc(Cl)c4F)c3c2)cnc1Cl	3 µM
C[C@H]1CCC/C=C/[C@@H]2C[C@H](O)C[C@H]2[C@H](O)[C@@H](SC2OC(CO)C(O)C(O)C2O)CC(=O)O1 (stereo not given in full)	> 100 µM
Cc1nn2c(/C=C3\C(=O)Nc4ccccc43)c(C)nc2s1	18.5 µM
N#Cc1ccc2c(c1)C(=O)c1c-2n(CCCN=[N+]=[N-])c(=O)c2cc([N+](=O)[O-])ccc12	37.4 µM

Now take the following compound into account.
Query :: Supply reported GI50 belonging to this compound: C/C=C/C(=O)[O-].N.N.N.N.N.[Co+3].[O-][Cl+3]([O-])([O-])[O-]
Result :: > 100 µM
